Reference source for all entries: ChEMBL document CHEMBL3045439

Target: Ecdysone receptor (Aedes aegypti, UniProt P49880+Q9GSG8)
Sequence (P49880 whole entry): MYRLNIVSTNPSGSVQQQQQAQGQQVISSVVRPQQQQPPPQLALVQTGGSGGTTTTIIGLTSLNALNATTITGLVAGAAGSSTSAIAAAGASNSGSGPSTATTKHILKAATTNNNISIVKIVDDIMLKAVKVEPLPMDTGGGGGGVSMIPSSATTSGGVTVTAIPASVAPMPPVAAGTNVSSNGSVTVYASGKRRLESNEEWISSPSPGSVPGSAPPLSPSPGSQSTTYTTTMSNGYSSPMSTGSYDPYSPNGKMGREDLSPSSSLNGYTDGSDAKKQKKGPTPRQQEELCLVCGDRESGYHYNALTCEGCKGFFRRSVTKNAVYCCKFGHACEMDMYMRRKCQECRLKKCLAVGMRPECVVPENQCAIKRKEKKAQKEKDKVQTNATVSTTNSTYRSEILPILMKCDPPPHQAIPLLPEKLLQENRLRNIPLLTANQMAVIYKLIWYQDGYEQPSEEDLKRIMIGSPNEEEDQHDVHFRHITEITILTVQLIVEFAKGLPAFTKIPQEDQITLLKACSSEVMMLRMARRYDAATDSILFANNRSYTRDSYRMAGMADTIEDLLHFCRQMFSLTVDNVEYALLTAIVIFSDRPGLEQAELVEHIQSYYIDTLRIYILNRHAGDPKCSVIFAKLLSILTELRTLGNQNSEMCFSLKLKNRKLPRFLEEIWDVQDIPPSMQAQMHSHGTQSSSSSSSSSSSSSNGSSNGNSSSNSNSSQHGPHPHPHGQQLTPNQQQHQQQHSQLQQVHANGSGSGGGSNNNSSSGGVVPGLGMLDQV
Sequence (Q9GSG8 whole entry): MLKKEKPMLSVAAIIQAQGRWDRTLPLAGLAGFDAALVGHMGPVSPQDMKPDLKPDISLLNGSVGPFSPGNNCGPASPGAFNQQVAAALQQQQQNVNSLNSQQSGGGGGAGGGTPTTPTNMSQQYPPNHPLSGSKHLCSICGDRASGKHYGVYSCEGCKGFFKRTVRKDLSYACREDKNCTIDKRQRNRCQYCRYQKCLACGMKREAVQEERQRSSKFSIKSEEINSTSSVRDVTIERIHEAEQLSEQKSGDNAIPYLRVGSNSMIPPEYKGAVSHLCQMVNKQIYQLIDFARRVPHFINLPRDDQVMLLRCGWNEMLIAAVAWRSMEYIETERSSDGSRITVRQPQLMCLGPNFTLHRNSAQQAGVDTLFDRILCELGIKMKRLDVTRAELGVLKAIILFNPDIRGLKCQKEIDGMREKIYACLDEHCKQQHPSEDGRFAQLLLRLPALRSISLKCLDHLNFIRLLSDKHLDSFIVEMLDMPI
Experiment: Binding affinity to Aedes aegypti EcR
Observed Property: Ki (nM)
Provide the reading as a plain figure in nM.

What value of measured Ki is listed for CCc1ccc(C(=O)NN(C(=O)c2cc(C)cc(C)c2)C(C)(C)C)cc1 [TEBUFENOZIDE] ?
25.1
